assay: binders of probe aHhip on microarray, primary screen, stem cell growth factor project, biochemical, small-molecule microarray, fluorescence 635/667 (AID 1087); details: higher = more signal;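 further: score merges spot fluorescence at 667nm with spot signal to noise ratio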
# Lookup of reported composite z-score keyed by entry
assayReadout: composite z-score

compound | observedValue
Cc1ccc(S[C@]2(C(=O)NC3CC3)CC(=O)N(Cc3ccccc3)[C@@H]2c2ccc(CO)cc2)cc1 | -0.247
O=C1OCCC=C[C@H]2OC34C=CCN(Cc5ccccc5)C(=O)[C@H]3N(CCCCCO)C(=O)[C@@H]4C12 (stereo partly specified) | -0.35
COC(=O)[C@@]1(Cc2ccccc2N=[N+]=[N-])COC(c2ccc(OCCCO)cc2)=N1 | 0.0176
COc1ccc([Si](C)(C)[C@H]2[C@H](CC(=O)N(CCO)Cc3ccccc3)O[C@@]3(C(=O)N(Cc4cccc(N5CCC5=O)c4)c4ccccc43)[C@@H]2C)cc1 | -0.13
CC(C)OC(=O)CC(=O)CC(O)c1ccc(C#N)cc1 (stereo unspecified) | 0.0722
O=C1O[C@@H](c2ccccc2)[C@@H](c2ccccc2)N2[C@@H](c3ccc(OCCO)cc3)[C@]3(C(=O)Nc4ccccc43)[C@@H](C(=O)Nc3nc4ccccc4s3)[C@H]12 | 0.629
Cc1ccc(S[C@]2(C(=O)NCC(C)C)CC(=O)N(Cc3ccccc3)[C@@H]2c2ccc(CO)cc2I)cc1 | -0.0427
CC(=O)NCCCC[C@@H]1NC(=O)[C@@H]2C[C@H](C(=O)NCCCCN(C)C)[C@H](c3ccc(O)cc3)N2C1=O | 0.0373
C=CCNC(=O)[C@@H]1[C@H]2C(=O)O[C@H](c3ccccc3)[C@H](c3ccccc3)N2[C@H](c2ccccc2OCCO)[C@@]12C(=O)Nc1ccc(C#CC3=CCCCC3)cc12 | 0.134
COC(=O)C[C@@H]1C[C@H](C)[C@]2(O1)C(=O)N(Cc1ccccc1)c1ccc(NC(C)=O)cc12 | 0.0012
O=C(OCCF)C1=CCC(c2cccc(Cl)c2)O1 (stereo unspecified) | -0.226
COc1ccc([Si](C)(C)[C@H]2[C@H](CCn3cc([C@H](O)c4ccccc4)nn3)O[C@@]3(C(=O)N(Cc4cccc(N5CCC5=O)c4)c4ccccc43)[C@@H]2C)cc1 | -0.191
CC(C)C(O)C1C=CC2C(=O)N(c3ccccc3)C(=O)C2N1Nc1ccc(C#N)cc1 (stereo unspecified) | -0.168
[N-]=[N+]=Nc1ccccc1[C@H]1OC(c2ccc(OCCCO)cc2)=N[C@@]1(CCS(=O)(=O)c1ccccc1)C(=O)O | -0.189
CCOC(=O)C1=CCC(C(C)(C)C)N(S(=O)(=O)c2ccc(C)cc2)C1 (stereo unspecified) | 0.0139
Cc1cc(C)c(C(O)C2C=CC3C(=O)N(c4ccccc4)C(=O)C3N2Nc2ccc(C#N)cc2)c(C)c1 (stereo unspecified) | 0.167

====

This listing pairs molecules with measured z-score.
assay: basal RPMI8226 viability, no added stimulus, profiling panel, cell-based, calcein-AM fluorescence, 48 h, PK04 Diversity Set (AID 1166); settings: RPMI8226 myeloma viability, higher = more signal;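 further: cells grown under basal conditions without added stimulus; test concentration not given here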

molecule | z-score
COC(=O)[C@@]1(Cc2ccc(OC)cc2)[C@H]2c3cc(C(=O)N4CCCC4)n(CCc4c[nH]c5cc(F)ccc45)c3C[C@H]2CN1C(=O)c1ccccc1 | -0.758
Cc1ccccc1C(O)C1C=CC2C(=O)N(C)C(=O)C2N1Nc1ccccc1 (centres undefined) | -0.272
CC(C)(C)OC(=O)CC[C@@]1(C(=O)NCCN2CCOCC2)N=C(c2ccc(OCCCO)cc2)O[C@@H]1c1ccccc1 | 1.26
[N-]=[N+]=NCc1ccccc1C[C@]1(C(=O)NCC(O)CO)N=C(c2ccc(OCCCO)cc2)O[C@H]1c1ccccc1N=[N+]=[N-] (some centres undefined) | -1.11
